- tested-system: T1, HLA-A2/E7(11-19) tetramer (human; HPV 16)
- T1 construct: also called E7(11-19) peptide-MHC tetramer; E7 tet
- experiment-description: flow cytometry, tetramer + anti-CD8; transfected mix of CD8- and CD8+ Jurkat-derived cells;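 also: cells transiently transfected with TCR-encoding plasmids, analysed 48 h afterwards by co-staining with HLA-A*02:01 peptide tetramer and anti-CD8 antibody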
measurement-kind: % cells E7 tet+/CD8- quadrant (%)
Write the value in % as a bare number.

The cases that follow already have their % cells E7 tet+/CD8- quadrant on record.
| binder | % cells E7 tet+/CD8- quadrant / % |
| --- | --- |
| TCR 36 (codon-optimized, cysteine-modified) (TCR, V domains shown) V domain 1: RKEVEQDPGPFNVPEGATVAFNCTYSNSASQSFFWYRQDCRKEPKLLMSVYSSGNEDGRFTAQLNRASQYISLLIRDSKLSDSATYLCVVNRDNYGQNFVFGPGTRLSVLP V domain 2: EPEVTQTPSHQVTQMGQEVILRCVPISNHLYFYWYRQILGQKVEFLVSFYNNEISEKSEIFDDQFSVERPDGSNFTLKIRSTKLEDSAMYFCAMTGRSNYEQYFGPGTRLTVTE | 16.7 |
| TCR 32 (codon-optimized, cysteine-modified) (TCR, V domains shown) V domain 1: TQLLEQSPQFLSIQEGENLTVYCNSSSVFSSLQWYRQEPGEGPVLLVTVVTGGEVKKLKRLTFQFGDARKDSSLHITAAQPGDTGLYLCAGGSNYKLTFGKGTLLTVNP V domain 2: DSGVTQTPKHLITATGQRVTLRCSPRSGDLSVYWYQQSLDQGLQFLIQYYNGEERAKGNILERFSAQQFPDLHSELNLSSLELGDSALYFCASSVGGDHSDEQFFGPGTRLTVLE | 33.5 |

Noted for TCR 47 (codon-optimized, cysteine-modified) (TCR, V domains shown) V domain 1: QKEVEQNSGPLSVPEGAIASLNCTYSDRGSQSFFWYRQYSGKSPELIMFIYSNGDKEDGRFTAQLNKASQYVSLLIRDSQPSDSATYLCAVNLLSGSARQLTFGSGTQLTVLP V domain 2: EPEVTQTPSHQVTQMGQEVILRCVPISNHLYFYWYRQILGQKVEFLVSFYNNEISEKSEIFDDQFSVERPDGSNFTLKIRSTKLEDSAMYFCAMTGRTTYEQYFGPGTRLTVTE : its % cells E7 tet+/CD8- quadrant reads 0.71
